The entries below come with measured protein stability index values attached.
tested on: Saccharomyces cerevisiae; assay: protein stability index of tFT-peptide fusion (C-terminal peptide) (PSI (0-1 scale)); higher = more stable (slower turnover); conditions: genetic background: wild type; temperature: 30 C
Write no unit; give the number alone.

Look over these answered cases.
GGRNQYGGDDDY [DDR48 C-terminal 12 aa] = 0.686
DILSQIIESCWV [YNL174W C-terminal 12 aa] = 0.705
VGITSVGTRGNY [YNL140C C-terminal 12 aa] = 0.717

Switching to the query record.
For the sequence PEAEGPTVEEVD [SSA1 C-terminal 12 aa] , give its reported protein stability index.
0.694
